# Assay Remarks: Microsomal Stability Assay, mouse liver microsomes
# Format: in vitro ADME
# Test Parameters: male, CD-1, pH 7.4; mouse liver microsomes 0.1 mg/mL, 0.1 uM compound
Below, each entry is listed alongside its reported microsomal CLint at 0.1 uM.
Parameter Measured: microsomal CLint at 0.1 uM

smiles_record=O=C(COc1cnc(N[C@H]2CC[C@@H](Oc3nc(N4CCOCC4)cc4ncccc34)CC2)nc1)N1CCOCC1 reported_value="< 116 µL/min/mg"
smiles_record=CN(C)C(=O)COc1cnc(N[C@H]2CC[C@@H](Oc3nc(N4CCOCC4)cc4ncc(NS(C)(=O)=O)cc34)CC2)nc1 reported_value="< 116 µL/min/mg"
smiles_record=Cn1cc(-c2cnc3cc(N4CCOCC4)nc(O[C@H]4CC[C@@H](n5ccnc5)CC4)c3c2)cn1 reported_value="> 116 µL/min/mg"
smiles_record=CN(C)C(=O)Cn1cccc1C(=O)N[C@H]1CC[C@@H](Oc2nc(N3CCOCC3)cc3ncccc23)CC1 reported_value="> 116 µL/min/mg"
smiles_record=CN(C)C(=O)Cn1ccc(C(=O)N[C@H]2CC[C@@H](Oc3nc(N4CCOCC4)cc4ncccc34)CC2)c1 reported_value="< 116 µL/min/mg"
smiles_record=CC1(C)CN(c2cc3ncccc3c(O[C@H]3CC[C@@H](n4ccnc4)CC3)n2)CC(C)(C)O1 reported_value="> 116 µL/min/mg"
smiles_record=O=C(O)c1cnc2cc(N3CCOCC3)nc(O[C@H]3CC[C@@H](n4ccnc4)CC3)c2c1 reported_value="< 116 µL/min/mg"
smiles_record=CN(C)C(=O)COc1ccc(N[C@H]2CC[C@@H](Oc3nc(N4CCOCC4)cc4ncccc34)CC2)nc1 reported_value="> 116 µL/min/mg"
smiles_record=CN(C)C(=O)COc1cnc(N[C@H]2CC[C@@H](Oc3nc(N4CCOCC4)cc4ncccc34)CC2)nc1 reported_value="< 116 µL/min/mg"
smiles_record=Cn1cc([C@H]2CC[C@@H](Oc3nc(N4CCOCC4)cc4ncc(OCCO)cc34)CC2)cn1 reported_value="> 116 µL/min/mg"
smiles_record=c1cnc2cc(N3CCOCC3)nc(O[C@H]3CC[C@@H](Nc4ncc(OCCN5CCNCC5)cn4)CC3)c2c1 reported_value="> 116 µL/min/mg"
smiles_record=O=S(=O)(Nc1cnc2cc(N3CCOCC3)nc(O[C@H]3CC[C@@H](Nc4ncccn4)CC3)c2c1)C1CC1 reported_value="< 116 µL/min/mg"
smiles_record=O=C(Nc1ccccc1)N[C@H]1CC[C@@H](Oc2nc(N3CCOCC3)cc3ncccc23)CC1 reported_value="> 116 µL/min/mg"
smiles_record=CC(=O)NC(=O)c1cnc2cc(N3CCOCC3)nc(O[C@H]3CC[C@@H](n4ccnc4)CC3)c2c1 reported_value="> 116 µL/min/mg"
smiles_record=CN(C)C(=O)COc1ccnc(N[C@H]2CC[C@@H](Oc3nc(N4CCOCC4)cc4ncccc34)CC2)n1 reported_value="> 116 µL/min/mg"

Values compiled from patent US20240239790A1.
